Biological target: T1, Human OX40R-IgG1 fusion protein (human, UniProt P43489 29-208)
T1 construct: range 1-208; Purified on protein G; also called OX40-IgG1; OX40-IgG; not shown: constant region of human IgG1 (hinge region, CH2 and CH3), amino acids 98-330 of SWISSPROT Acc; No. P01857
T1 sequence (looked up): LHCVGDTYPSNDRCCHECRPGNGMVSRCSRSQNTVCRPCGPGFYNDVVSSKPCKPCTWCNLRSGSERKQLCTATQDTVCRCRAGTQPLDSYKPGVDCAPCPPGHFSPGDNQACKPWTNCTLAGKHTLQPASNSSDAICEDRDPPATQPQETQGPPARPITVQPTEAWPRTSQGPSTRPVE
Assay: Alphascreen-based competition assay against OX40L-CD8 on OX40R-IgG1; P5 (amino acids 94-124)
pKd: −log10 of the molar value.
assay.readout: pKd

(Q) Name the recorded pKd for IINCDGFYLISLKGYFSQEVNISLHYQKDEE (Synthetic peptide (Epytop), purity 85-97%) [Peptide P5 (amino acids 94-124 of human OX40L)] .
(A) ~5.00

Source of measurements: patent US20070009964A1
